target: mfT1R2a/mfT1R3 (Oryzias latipes, UniProt Q2MHK2+Q2MHK5); test: Ca2+ mobilization dose-response assay, stable cells expressing mfT1R2a/mfT1R3 with G16gust44; conditions: EC50, [Cl-]o=10 mM; unit inferred
Sequence (Q2MHK5 20-819): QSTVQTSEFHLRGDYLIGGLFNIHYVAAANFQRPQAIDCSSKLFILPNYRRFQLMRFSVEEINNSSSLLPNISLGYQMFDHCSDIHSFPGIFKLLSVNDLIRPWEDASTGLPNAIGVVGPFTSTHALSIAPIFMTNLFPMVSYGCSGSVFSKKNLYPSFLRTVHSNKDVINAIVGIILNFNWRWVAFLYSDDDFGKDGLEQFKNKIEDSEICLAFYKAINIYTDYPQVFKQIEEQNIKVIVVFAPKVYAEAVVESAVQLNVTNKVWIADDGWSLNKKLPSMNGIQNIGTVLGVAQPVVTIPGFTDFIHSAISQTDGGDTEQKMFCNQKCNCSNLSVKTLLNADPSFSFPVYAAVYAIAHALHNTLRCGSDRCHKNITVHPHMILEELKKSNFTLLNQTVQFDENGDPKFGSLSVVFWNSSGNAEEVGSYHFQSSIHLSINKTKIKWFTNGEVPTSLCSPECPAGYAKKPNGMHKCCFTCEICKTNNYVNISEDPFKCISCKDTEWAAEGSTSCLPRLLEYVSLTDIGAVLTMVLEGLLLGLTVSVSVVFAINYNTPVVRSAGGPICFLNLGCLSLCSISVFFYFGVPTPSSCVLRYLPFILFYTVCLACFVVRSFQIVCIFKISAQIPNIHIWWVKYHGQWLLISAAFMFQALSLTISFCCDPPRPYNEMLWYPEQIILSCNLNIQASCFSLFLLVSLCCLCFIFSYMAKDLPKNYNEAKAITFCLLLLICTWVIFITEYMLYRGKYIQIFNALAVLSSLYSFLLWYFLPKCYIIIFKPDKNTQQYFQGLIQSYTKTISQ
Sequence (Q2MHK2 20-853): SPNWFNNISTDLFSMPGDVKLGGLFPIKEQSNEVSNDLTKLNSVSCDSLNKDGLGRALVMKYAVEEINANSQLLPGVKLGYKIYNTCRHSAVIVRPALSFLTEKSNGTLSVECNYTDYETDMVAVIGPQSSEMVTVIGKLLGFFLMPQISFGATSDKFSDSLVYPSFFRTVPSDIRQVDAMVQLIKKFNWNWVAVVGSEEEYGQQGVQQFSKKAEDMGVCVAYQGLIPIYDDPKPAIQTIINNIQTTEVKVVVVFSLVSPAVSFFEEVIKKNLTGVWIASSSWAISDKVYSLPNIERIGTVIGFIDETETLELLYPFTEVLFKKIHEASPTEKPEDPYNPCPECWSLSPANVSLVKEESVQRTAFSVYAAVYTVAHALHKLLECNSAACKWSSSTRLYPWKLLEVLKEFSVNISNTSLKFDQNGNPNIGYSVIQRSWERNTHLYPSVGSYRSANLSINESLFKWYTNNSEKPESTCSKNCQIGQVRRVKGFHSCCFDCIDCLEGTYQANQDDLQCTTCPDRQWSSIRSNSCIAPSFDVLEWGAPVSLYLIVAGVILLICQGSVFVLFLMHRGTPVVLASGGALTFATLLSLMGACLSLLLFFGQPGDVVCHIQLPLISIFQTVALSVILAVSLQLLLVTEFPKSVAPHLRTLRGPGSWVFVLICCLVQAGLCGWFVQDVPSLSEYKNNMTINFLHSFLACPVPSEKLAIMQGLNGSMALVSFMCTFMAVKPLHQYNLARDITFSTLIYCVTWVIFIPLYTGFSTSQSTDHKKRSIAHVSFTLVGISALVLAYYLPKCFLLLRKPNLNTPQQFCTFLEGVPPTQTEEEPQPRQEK
measured parameter: EC50 (µM)
Your answer is read as µM, so omit the unit and give the number.

// field: EC50; key: `NC(=O)CC[C@H](N)C(=O)O` ; value = 403

---

Target: zfT1R2b/zfT1R3 (Danio rerio, UniProt A0A8M1NDZ5+Q2MHK9)
Sequence (A0A8M1NDZ5 18-823): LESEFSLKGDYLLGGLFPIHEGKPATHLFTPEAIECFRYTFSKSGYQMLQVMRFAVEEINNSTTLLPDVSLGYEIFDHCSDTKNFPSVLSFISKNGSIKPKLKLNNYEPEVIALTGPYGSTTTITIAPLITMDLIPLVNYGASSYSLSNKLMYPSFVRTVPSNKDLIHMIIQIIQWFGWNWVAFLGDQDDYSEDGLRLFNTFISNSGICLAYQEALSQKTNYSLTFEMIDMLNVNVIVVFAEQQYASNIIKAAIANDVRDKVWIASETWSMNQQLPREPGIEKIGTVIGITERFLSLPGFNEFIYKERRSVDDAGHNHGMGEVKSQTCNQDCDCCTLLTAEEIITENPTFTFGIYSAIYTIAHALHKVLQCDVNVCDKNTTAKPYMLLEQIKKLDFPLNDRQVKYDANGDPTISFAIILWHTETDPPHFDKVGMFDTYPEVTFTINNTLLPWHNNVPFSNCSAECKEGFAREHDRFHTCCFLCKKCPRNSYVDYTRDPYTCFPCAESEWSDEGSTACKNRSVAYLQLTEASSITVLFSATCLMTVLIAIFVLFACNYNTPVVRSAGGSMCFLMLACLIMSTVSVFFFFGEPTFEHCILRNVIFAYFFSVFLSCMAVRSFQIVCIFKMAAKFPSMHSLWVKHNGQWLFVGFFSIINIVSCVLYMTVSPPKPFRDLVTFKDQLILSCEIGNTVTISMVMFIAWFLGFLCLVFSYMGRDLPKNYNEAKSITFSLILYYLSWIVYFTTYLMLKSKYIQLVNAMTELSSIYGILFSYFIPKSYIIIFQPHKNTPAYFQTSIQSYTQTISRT
Sequence (Q2MHK9 25-850): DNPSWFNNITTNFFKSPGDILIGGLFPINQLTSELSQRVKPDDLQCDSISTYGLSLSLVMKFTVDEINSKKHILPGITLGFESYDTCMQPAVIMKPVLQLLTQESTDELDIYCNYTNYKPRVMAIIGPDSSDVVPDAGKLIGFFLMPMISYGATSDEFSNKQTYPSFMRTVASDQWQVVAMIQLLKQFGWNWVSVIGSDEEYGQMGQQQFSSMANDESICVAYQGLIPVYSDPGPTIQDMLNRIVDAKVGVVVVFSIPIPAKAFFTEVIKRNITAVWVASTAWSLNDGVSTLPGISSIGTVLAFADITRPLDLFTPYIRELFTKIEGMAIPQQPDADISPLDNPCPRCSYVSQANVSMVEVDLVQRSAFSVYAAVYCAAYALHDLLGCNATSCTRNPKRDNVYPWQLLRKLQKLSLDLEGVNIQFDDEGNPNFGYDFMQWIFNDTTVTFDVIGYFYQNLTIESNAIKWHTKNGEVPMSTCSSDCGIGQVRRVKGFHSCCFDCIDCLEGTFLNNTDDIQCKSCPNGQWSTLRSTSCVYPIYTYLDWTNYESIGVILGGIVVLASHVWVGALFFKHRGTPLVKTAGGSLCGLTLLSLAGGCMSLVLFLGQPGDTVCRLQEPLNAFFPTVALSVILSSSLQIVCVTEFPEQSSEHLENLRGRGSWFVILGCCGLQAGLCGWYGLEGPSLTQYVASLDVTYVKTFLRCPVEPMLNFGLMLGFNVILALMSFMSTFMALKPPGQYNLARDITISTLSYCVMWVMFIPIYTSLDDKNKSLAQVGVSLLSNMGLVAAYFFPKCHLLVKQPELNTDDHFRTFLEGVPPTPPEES
Experiment: cell-based
measured parameter: EC50 (µM)
Reply with just the number (in µM).

Item: `C[C@H](N)C(=O)O` | System: zfT1R2b/zfT1R3 (Danio rerio, UniProt A0A8M1NDZ5+Q2MHK9) | EC50: 2900

Where these numbers come from: paper PMC10539361
